Reported viability, T/C values for the following molecules.
test system: 743489-274-T-PDC complex spheroid growth; experiment: Anticancer human tumor 743489-274-T-PDC patient-derived renal cell carcinoma cell line growth inhibition [AhR]; settings: second compound 3.16 µM; first compound 0.000316 µM; stronger effect = lower value;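 also: spheroids exposed to agents for 7 days before readout; 100% = DMSO vehicle control wells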

{"columns": ["MOLECULE", "viability, T/C"],
 "data": [
  ["CC[C@@]1(O)C(=O)OCc2c1cc1n(c2=O)Cc2cc3c(CN(C)C)c(O)ccc3nc2-1 + Cc1ccccc1N=Nc1ccc(NC(=O)c2ccnn2C)c(C)c1", "87.4%"],
  ["CC[C@@]1(O)C(=O)OCc2c1cc1n(c2=O)Cc2cc3c(CN(C)C)c(O)ccc3nc2-1 + CC(CO)NC(=O)c1cc(-c2ccc(Cl)cc2)nn(-c2cnn(C)c2)c1=O", "91.2%"],
  ["Cn1ncnc1C1c2n[nH]c(=O)c3cc(F)cc(c23)NC1c1ccc(F)cc1 (stereo unspecified) + CC(CO)NC(=O)c1cc(-c2ccc(Cl)cc2)nn(-c2cnn(C)c2)c1=O", "93.9%"],
  ["CC[C@@]1(O)C(=O)OCc2c1cc1n(c2=O)Cc2cc3c(CN(C)C)c(O)ccc3nc2-1 + Cc1cncc(-c2nc(NCCc3c[nH]c4ccccc34)c3ncn(C(C)C)c3n2)c1", "113%"],
  ["Cn1ncnc1C1c2n[nH]c(=O)c3cc(F)cc(c23)NC1c1ccc(F)cc1 (stereo unspecified) + Cc1cncc(-c2nc(NCCc3c[nH]c4ccccc34)c3ncn(C(C)C)c3n2)c1", "121%"],
  ["Cn1ncnc1C1c2n[nH]c(=O)c3cc(F)cc(c23)NC1c1ccc(F)cc1 (stereo unspecified) + Cc1ccccc1N=Nc1ccc(NC(=O)c2ccnn2C)c(C)c1", "93.3%"]
]}
